Test system: Staphylococcus aureus NRS384 (MRSA USA300)
Test: Initial MIC screening, broth microdilution (CLSI)
Type: cell-based
Conditions: Staphylococcus aureus, Staphylococcus aureus NRS384 (MRSA USA300), broth microdilution, visual reading; read-out: MIC
Description: Method: The minimum inhibitory concentration (MIC) of the compounds 1-187, and control antibiotics (vancomycin, linezolid) was determined using the broth microdilution method against methicillin-resistant Staphylococcus aureus (MRSA) USA 300 using the broth microdilution method according to the guidelines outlined by the Clinical and Laboratory Standards Institute (CLSI). MRSA strain was cultivated on Tryptic soy agar plates and let grow for 24 hours at 37° C. under aerobic conditions. […]
reported_metric: MIC (µg/mL)
Numbers only here, please. The scale is µg/mL.

Asked: What value of MIC has been recorded for this entry: C=C1C(=O)O[C@H](c2ccnc3ncccc23)[C@H]1c1ccccc1
Given back: 32

###

test system: Staphylococcus aureus NRS384 (MRSA USA300); assay: Initial MIC screening, broth microdilution (CLSI); type: cell-based; details: Staphylococcus aureus NRS384 (MRSA USA300), broth microdilution, visual reading
MIC vs 20 µg/mL: less than gives Criterion met; not less than gives Criterion not met.

Field: example entries. Status: answers known.
> print(dat)
                                   compound                               test.system           category
1  C=C(C(=O)OC)C(c1ccc2ccccc2c1)C(O)c1ccc2ccccc2c1 (centres unmarked)  Staphylococcus aureus NRS384 (MRSA USA300)      Criterion met
2  C=C1C(=O)O[C@H](c2ccnc3ccccc23)[C@H]1c1ccccc1 [Compound 113]  Staphylococcus aureus NRS384 (MRSA USA300)      Criterion met
3  C=C1C(=O)O[C@H](c2ccc3ccccc3c2)[C@@H]1c1ccc2ccccc2c1  Staphylococcus aureus NRS384 (MRSA USA300)      Criterion met
4  C=C1C(=O)O[C@H](c2ccnc3ccccc23)[C@H]1c1ccccc1 [Compound 120]  Staphylococcus aureus NRS384 (MRSA USA300)  Criterion not met
5  C=C1C(=O)O[C@H](c2ccccc2)[C@@H]1c1ccc2ccccc2c1 [Compound 107]  Staphylococcus aureus NRS384 (MRSA USA300)      Criterion met
6  C=C1C(=O)O[C@H](c2ccc(OC)cc2)[C@@H]1c1ccc(OC)cc1  Staphylococcus aureus NRS384 (MRSA USA300)  Criterion not met

Continue with the compound presented below.
Asked: Item C=C1C(=O)O[C@H](c2ccccc2)[C@@H]1c1ccccc1 : MIC beneath 20 µg/mL, strictly?
Given back: Criterion met

###

Reported MIC values for the following compounds.
tested on: Methicillin-resistant S. epidermidis NRS101; experiment: MIC, Gram-positive panel; assay type: cell-based; conditions: Staphylococcus epidermidis; Methicillin-resistant S. epidermidis NRS101; read-out: MIC
State just the number; it will be interpreted in µg/mL.

Answered cases to consult:
> print(dat)
                                   compound  reported.metric  quantitative.readout
1  C=C1C(=O)O[C@H](c2cccc3ccccc23)[C@@H]1c1ccc2ccccc2c1              MIC                     1
2  C=C1C(=O)O[C@H](c2ccc3ccccc3c2)[C@@H]1c1ccc2ccccc2c1              MIC                   0.5
3  C=C(C(=O)OC)C(c1cccc2ccccc12)C(O)c1ccccc1 (centres unmarked)              MIC                     1
4  C=C1C(=O)O[C@H](c2ccccc2)[C@@H]1c1cccc2ccccc12              MIC                     8
5  C=C(C(=O)OC)C(c1ccc2ccccc2c1)C(O)c1ccc2ccccc2c1 (centres unmarked)              MIC                     2

Asked: // lookup MIC for C=C(C(=O)OC)C(c1ccc2ccccc2c1)C(O)c1cccc2ccccc12 (centres unmarked)
Given back: 1

Asked: Any idea what its MIC is? The compound is C=C1C(=O)O[C@H](C2=CC=CCC2)[C@H]1c1cccc2ccccc12
Given back: 0.5

Asked: Entry CC(=O)NC[C@H]1CN(c2ccc(N3CCOCC3)c(F)c2)C(=O)O1 [linezolid, reference compound] : reported MIC = ?
Given back: 1

###

MIC for assorted compounds
tested on: Staphylococcus aureus NRS384 (MRSA USA300); test: Initial MIC screening, broth microdilution (CLSI); format: cell-based; conditions: Staphylococcus aureus, Staphylococcus aureus NRS384 (MRSA USA300), broth microdilution, visual reading; read-out: MIC
Express the result in mg/L but write the number alone.

// known answers, use as guide
> print(dat)
                                   compound                               test.system  quantitative.readout
1  C=C1C(=O)O[C@H](c2ccc(OC)cc2)[C@@H]1c1ccc(OC)cc1  Staphylococcus aureus NRS384 (MRSA USA300)                    32
2  C=C1C(=O)O[C@H](c2ccc(OC)cc2)[C@@H]1c1ccc(C#N)cc1  Staphylococcus aureus NRS384 (MRSA USA300)                    32
3  C=C1C(=O)O[C@H](c2ccc(O)cc2)[C@@H]1c1ccc(C#N)cc1  Staphylococcus aureus NRS384 (MRSA USA300)                   256

Asked: Look up MIC for this compound: C=C(C(=O)OC)C(c1ccccc1)C(O)c1cccc2ccccc12 (centres unmarked)
Given back: 4

###

system: Staphylococcus aureus NRS384 (MRSA USA300); assay: Initial MIC screening, broth microdilution (CLSI); type: cell-based; settings: Staphylococcus aureus, Staphylococcus aureus NRS384 (MRSA USA300), broth microdilution, visual reading; read-out: MIC
# reported MIC; entries follow
Record the value in mg/L, omitting the unit from your answer.

Some compounds with recorded MIC:
> print(dat)
                                   compound  result.unit  quantitative.readout
1  O=C1O[C@H](c2ccccc2)[C@H](c2ccccc2)C1CN1CCCCC1 (stereo partly drawn)         mg/L                    16
2  C=C1C(=O)O[C@H](c2cc(OC)c(OC)c(OC)c2)[C@@H]1c1ccc(C(F)(F)F)cc1         mg/L                    32
3  C=C1C(=O)O[C@H](c2ccc(O)cc2)[C@@H]1c1cccc(C#N)c1         mg/L                   128
4  C=C1C(=O)O[C@H](c2ccc(C)cc2)[C@@H]1c1ccc(C#N)cc1         mg/L                     4
5  C=C1C(=O)O[C@H](c2ccc(OC)cc2)[C@@H]1c1ccccc1         mg/L                    64
6  C=C1C(=O)O[C@H](c2ccc(Br)cc2)[C@@H]1c1ccc(C#N)cc1         mg/L                     4

From here, focus on the item given below.
Asked: Look up MIC: O=C1OC(C2CCCCC2)[C@H](c2ccccc2)C1CN1CCCCC1 (stereo partly drawn)
Given back: 32

###

tested on: Staphylococcus aureus NRS384 (MRSA USA300); assay: Initial MIC screening, broth microdilution (CLSI); format: cell-based; details: Staphylococcus aureus, Staphylococcus aureus NRS384 (MRSA USA300), broth microdilution, visual reading; read-out: MIC
reported_metric: MIC (µg/mL)
Report the figure in µg/mL without appending any unit label.

> print(dat)
                                   molecule                               test.system  quantitative.readout
1  C=C1C(=O)O[C@H](c2ccc(C(F)(F)F)cc2)[C@@H]1c1cccc(Br)c1  Staphylococcus aureus NRS384 (MRSA USA300)                    16
2  C=C1C(=O)O[C@H](c2ccccc2Br)[C@@H]1c1ccc(C#N)cc1  Staphylococcus aureus NRS384 (MRSA USA300)                     4
3  C=C(C(=O)OC)C(c1ccccc1)C(O)c1ccccc1 (stereo not drawn)  Staphylococcus aureus NRS384 (MRSA USA300)                    16

Field: next molecule
Asked: MIC for CN(C)CC1C(=O)O[C@H](c2ccccc2)[C@H]1c1ccccc1 (stereo partly drawn) ?
Given back: 32

###

system: Staphylococcus aureus NRS384 (MRSA USA300); test: Initial MIC screening, broth microdilution (CLSI); assay type: cell-based; details: Staphylococcus aureus, Staphylococcus aureus NRS384 (MRSA USA300), broth microdilution, visual reading; read-out: MIC
reported_metric: MIC (µg/mL)
I only need the number, in µg/mL, no unit after it.

Asked: Which MIC is listed for C=C1C(=O)O[C@H](c2ccccc2)[C@@H]1c1ccc(OC)cc1 [Compound 72] ?
Given back: 64

Asked: What MIC value was documented for this molecule, C=C1C(=O)O[C@H](c2ccccc2)[C@H]1c1ccc2ccccc2c1 [Compound 115] ?
Given back: 2

Asked: Item CN(C)C[C@@H]1C(=O)O[C@H](c2ccccc2)[C@@H]1c1ccccc1 [Compound 5] has what recorded MIC?
Given back: 16

Asked: For the molecule shown here, C=CCNC[C@@H]1C(=O)O[C@H](c2ccccc2)[C@@H]1c1ccccc1 [Compound 63] , give the reported MIC.
Given back: 128

Asked: Recorded MIC for COc1ccc([C@@H]2[C@H](CN(C)C)C(=O)O[C@@H]2c2ccc(C#N)cc2)cc1 [Compound 9] , please?
Given back: 128

Asked: What value of MIC has been reported for the following molecule? COc1ccc([C@@H]2C(CN3CCCCC3)C(=O)O[C@@H]2c2ccc(C)cc2)cc1 (stereo partly drawn) [Compound 35]
Given back: 64

Asked: I would be grateful if you could share the reported MIC for C=C1C(=O)O[C@H](c2ccccc2)[C@@H]1c1ccccc1 [Compound 103] .
Given back: 32

Asked: I am curious: what MIC value has been reported for C=C1C(=O)O[C@H]2[C@H]1CC/C(C)=C/CC[C@@]1(C)O[C@@H]21 [Compound 125, Parthenolide, reference compound] ?
Given back: 128

Asked: Which measured MIC value corresponds to C=C1C(=O)O[C@H](c2c(F)cccc2F)[C@@H]1c1ccccc1 [Compound 100] ?
Given back: 8

Asked: What does the data say about its MIC? Entry: C=C1C(=O)O[C@H](c2ccccc2)[C@@H]1C [Compound 97]
Given back: 16

The reported numbers originate from patent US20210317099A1.
